In this section, each of the binders is paired with its reported kon2 (2:1 heterogeneous ligand model).
Test target: filamentous actin (F-actin) from rabbit skeletal muscle (rabbit, UniProt P68135 1-377)
Assay protocol: BLI; F-actin immobilised on Streptavidin (SA) biosensors through LAbio peptide; αcat-ABD in solution at various concentrations; 26 °C, Octet384; 2 mM Tris-HCl pH 8.0, 0.2 mM ATP, 0.5 mM DTT, 0.1 mM CaCl2, 50 mM KCl, 2 mM MgCl2, 0.1% BSA, 0.02% Tween-20; 2:1 heterogeneous ligand model
Run conditions: both partners purified
Write the answer as a number in M⁻¹ s⁻¹, unit excluded.

Recorded kon2 (2:1 heterogeneous ligand model), per entry:
>  <Binder>
αE-catenin actin-binding domain, wild type (αEcat-ABD-WT; residues 652-906) (domain or fragment, source: E. coli BL21-CodonPlus, purified (glutathione-sepharose, thrombin cleavage, Superdex 75); not shown: GST, N-terminal, cleaved) SRTSVQTEDDQLIAGQSARAIMAQLPQEQKAKIAEQVASFQEEKSKLDAEVSKWDDSGNDIIVLAKQMCMIMMEMTDFTRGKGPLKNTSDVISAAKKIAEAGSRMDKLGRTIADHCPDSACKQDLLAYLQRIALYCHQLNICSKVKAEVQNLGGELVVSGVDSAMSLIQAAKNLMNAVVQTVKASYVASTKYQKSQGMASLNLPAVSWKMKAPEKKPLVKREKQDETQTKIKRASQKKHVNPVQALSEFKAMDSI

>  <Measure>
kon2 (2:1 heterogeneous ligand model)

>  <Observed>
31900

$$$$
>  <Binder>
αEcat-ABD V714A (domain or fragment, source: E. coli BL21-CodonPlus, purified (glutathione-sepharose, thrombin cleavage, Superdex 75); not shown: GST, N-terminal, cleaved) SRTSVQTEDDQLIAGQSARAIMAQLPQEQKAKIAEQVASFQEEKSKLDAEVSKWDDSGNDIIALAKQMCMIMMEMTDFTRGKGPLKNTSDVISAAKKIAEAGSRMDKLGRTIADHCPDSACKQDLLAYLQRIALYCHQLNICSKVKAEVQNLGGELVVSGVDSAMSLIQAAKNLMNAVVQTVKASYVASTKYQKSQGMASLNLPAVSWKMKAPEKKPLVKREKQDETQTKIKRASQKKHVNPVQALSEFKAMDSI

>  <Measure>
kon2 (2:1 heterogeneous ligand model)

>  <Observed>
20100

$$$$

// switching to the query binder
input: Recorded kon2 (2:1 heterogeneous ligand model) of αEcat-ABD 3A (L785A, I792A and V796A together) (domain or fragment, source: E. coli BL21-CodonPlus, purified (glutathione-sepharose, thrombin cleavage, Superdex 75); not shown: GST, N-terminal, cleaved) SRTSVQTEDDQLIAGQSARAIMAQLPQEQKAKIAEQVASFQEEKSKLDAEVSKWDDSGNDIIVLAKQMCMIMMEMTDFTRGKGPLKNTSDVISAAKKIAEAGSRMDKLGRTIADHCPDSACKQDLLAYLQRIAAYCHQLNACSKAKAEVQNLGGELVVSGVDSAMSLIQAAKNLMNAVVQTVKASYVASTKYQKSQGMASLNLPAVSWKMKAPEKKPLVKREKQDETQTKIKRASQKKHVNPVQALSEFKAMDSI , please.
output: 1400
